Test system: bronchospasms elicited by 5-hydroxytryptamine
ASSAY_NOTES: Bronchodilator Activity (Konzett Assays), 5-hydroxytryptamine
Format: in vivo, guinea pigs
CONDITION: Cavia porcellus; three logarithmic cumulative intravenous doses; spasmogen 5-hydroxytryptamine; read-out: ED50, Spasmogenic Agent 5-hydroxytryptamine
OBSERVED_PROPERTY: log10(ED50) (log10 of the value in µg/kg)
Please be aware that the numbers have been log10-transformed from ED50 in µg/kg.

-- ask Any idea what log10(ED50) was measured for CCCCC(O)C/C=C/[C@H]1C=CC(=O)[C@@H]1C/C=C\CCCC(=O)O (relative stereo) ?
-- reply 2.10

-- ask Any idea what log10(ED50) was measured for CCC/C=C/C(O)C/C=C/[C@H]1C=CC(=O)[C@@H]1C/C=C\CCCC(=O)O (relative stereo) ?
-- reply 2.80

-- ask Any idea what log10(ED50) was measured for CCCC(C)C(O)C/C=C/[C@H]1[C@H](O)CC(=O)[C@@H]1C/C=C\CCCC(=O)O (relative stereo) ?
-- reply 0.28

-- ask Any idea what log10(ED50) was measured for CCCCCC(O)C/C=C/[C@H]1[C@H](O)CC(=O)[C@@H]1C/C=C\CCCC(=O)O (relative stereo) ?
-- reply -0.49

-- ask Any idea what log10(ED50) was measured for CCCCC(O)C/C=C/[C@H]1[C@H](O)CC(=O)[C@@H]1C/C=C\CCCC(=O)O (relative stereo) ?
-- reply 0.56

-- ask Any idea what log10(ED50) was measured for CCC/C=C/C(O)C/C=C/[C@H]1[C@H](O)CC(=O)[C@@H]1C/C=C\CCCC(=O)O (relative stereo) ?
-- reply 0.08

----------
System: bronchospasms elicited by acetylcholine
ASSAY_NOTES: Bronchodilator Activity (Konzett Assays), acetylcholine
Type: in vivo, guinea pigs
CONDITION: Cavia porcellus; three logarithmic cumulative intravenous doses; spasmogen acetylcholine; read-out: ED50, Spasmogenic Agent Acetylcholine
Protocol: The compounds of this invention are useful as bronchodilators for the treatment of asthma and chronic bronchitis. Bronchodilator activity is determined in guinea pigs against bronchospasms elicited by intravenous injections of 5-hydroxytryptamine, histamine or acetylcholine by the Konzett procedure. [See J. Lulling, P. Lievens, F. El Sayed and J. Prignot, Arzneimittel-Forschung, 18, 955 (1968).] […]
I'd appreciate it if you could supply ED50 values for the items below.
// note: answer is a bare numeric in mg/kg

-- ask Request - read-out ED50 | tested on bronchospasms elicited by acetylcholine | compound CCCCCC(O)C/C=C/[C@H]1[C@H](O)CC(=O)[C@@H]1C/C=C\CCCC(=O)O (relative stereo)
-- reply 0.00072

-- ask Request - read-out ED50 | tested on bronchospasms elicited by acetylcholine | compound CCCCC(O)C/C=C/[C@H]1[C@H](O)CC(=O)[C@@H]1C/C=C\CCCC(=O)O (relative stereo)
-- reply 0.0173

-- ask Request - read-out ED50 | tested on bronchospasms elicited by acetylcholine | compound CCC/C=C/C(O)C/C=C/[C@H]1[C@H](O)CC(=O)[C@@H]1C/C=C\CCCC(=O)O (relative stereo)
-- reply 0.004

-- ask Request - read-out ED50 | tested on bronchospasms elicited by acetylcholine | compound CCCCC(O)C/C=C/[C@H]1C=CC(=O)[C@@H]1C/C=C\CCCC(=O)O (relative stereo)
-- reply 1.54

-- ask Request - read-out ED50 | tested on bronchospasms elicited by acetylcholine | compound CCCC(C)C(O)C/C=C/[C@H]1[C@H](O)CC(=O)[C@@H]1C/C=C\CCCC(=O)O (relative stereo)
-- reply 0.003

-- ask Request - read-out ED50 | tested on bronchospasms elicited by acetylcholine | compound CCC/C=C/C(O)C/C=C/[C@H]1C=CC(=O)[C@@H]1C/C=C\CCCC(=O)O (relative stereo)
-- reply 2.28
